Documented Ki across a set of molecules
# tested target: A₂ receptor (Rattus norvegicus)
# Construct: from tissue; host or cells: rat corpus striatum membrane preparation
# Sequence (P30543 whole entry): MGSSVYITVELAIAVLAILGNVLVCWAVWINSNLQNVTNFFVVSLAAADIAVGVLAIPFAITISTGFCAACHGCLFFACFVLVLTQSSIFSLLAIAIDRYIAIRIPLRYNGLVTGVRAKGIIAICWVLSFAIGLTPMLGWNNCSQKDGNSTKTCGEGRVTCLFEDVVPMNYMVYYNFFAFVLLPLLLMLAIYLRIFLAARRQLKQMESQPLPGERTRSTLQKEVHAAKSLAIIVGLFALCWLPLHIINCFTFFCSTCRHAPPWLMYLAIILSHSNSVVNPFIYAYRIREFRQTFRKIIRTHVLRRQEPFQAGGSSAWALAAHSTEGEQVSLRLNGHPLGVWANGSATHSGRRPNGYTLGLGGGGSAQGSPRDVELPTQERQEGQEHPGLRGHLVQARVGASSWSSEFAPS
# measurement description: Adenosine A₂ receptor binding test (³H-NECA binding)
# cond: ³H-NECA binding
Write the number in nM without appending the unit.

Field Ki (entry CCn1c(=O)c2[nH]c(/C=C/c3ccc(OC)c(OC)c3)nc2n(CC)c1=O [Compound 1] ) reads 23

Field Ki (entry CCn1c(=O)c2[nH]c(/C=C/c3ccc(OC)c(OC)c3OC)nc2n(CC)c1=O [Compound 7] ) reads 15

----------
Documented MLD across a set of molecules
# System: dd-strain male mice
# measurement description: Acute toxicity test (minimum lethal dose, oral)
# Assay type: in vivo
# cond: oral administration, three mice per group, mortality seven days after administration

Field MLD (entry CCn1c(=O)c2[nH]c(/C=C/c3cccc(F)c3)nc2n(CC)c1=O [Compound 65] ) reads > 100 mg/kg

Field MLD (entry CCn1c(=O)c2[nH]c(/C=C/c3ccc(O)cc3)nc2n(CC)c1=O [Compound 121] ) reads > 100 mg/kg

Field MLD (entry CCn1c(=O)c2[nH]c(/C=C/c3ccc(OC)c(OC)c3Cl)nc2n(CC)c1=O [Compound 49] ) reads > 100 mg/kg

Field MLD (entry CCn1c(=O)c2c(nc(/C=C/c3cccc(OC(F)(F)F)c3)n2C)n(CC)c1=O [Compound 80] ) reads > 100 mg/kg

Field MLD (entry CCn1c(=O)c2c(nc(/C=C/c3cccc(F)c3)n2C)n(CC)c1=O [Compound 66] ) reads > 300 mg/kg

***
Field MLD (entry CCn1c(=O)c2c(nc(/C=C/c3ccc(-c4ccccc4)cc3)n2C)n(CC)c1=O [Compound 101] ) reads > 100 mg/kg

Field MLD (entry CCn1c(=O)c2[nH]c(/C=C/c3ccc(OC)c(OC)c3OC)nc2n(CC)c1=O [Compound 7] ) reads > 300 mg/kg

Field MLD (entry CCn1c(=O)c2[nH]c(/C=C/c3cccc(OC)c3OC)nc2n(CC)c1=O [Compound 3] ) reads > 300 mg/kg
